Reference for the values: PubChem BioAssay AID1159580

method-summary: chemical genetic growth profiling, strain panel (AID 1159580);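 also: tested at 20 µM; growth read once vehicle control cultures reached saturation at 30 °C; 1 = growth at the plate median or of vehicle wells; lower values mean less growth of the strain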
test-conditions: S. cerevisiae deletion strains, growth OD, locus YLR133W, strain CKI1, active compounds read low
About 2,000 (36%) of roughly 5,500 compounds were called active. Another 18% or so got no clear call; they are omitted. Some of the results follow.
measurement-type: normalized growth
Reply with the value as a number alone.

>>> print(df.to_string())
                                   molecule   measurement_type  value_observed
0  O=C(NCCNc1ncc(C(F)(F)F)cc1Cl)C(F)(F)Sc1ccccc1  normalized growth           0.916
1         Nc1ccccc1C(=O)N/N=C\c1cc(Br)ccc1O  normalized growth           0.927
2  CSc1n[nH]c(-c2cc(C(F)(F)F)cc(C(F)(F)F)c2)n1  normalized growth           0.904
3             Nc1ccc(Sc2ccccc2)nc1Sc1ccccc1  normalized growth           0.945
4  CC(C)Cc1ccc(C(C)C(=O)Nc2nn(C)c3ccccc23)cc1 (stereo unspecified)  normalized growth            0.93

Query: normalized growth; subject: COC(=O)c1cnn(-c2c(Cl)cccc2Cl)c1C=C(C#N)C#N
0.968
